System: STAT3
protocol-text: STAT3 reporter gene assay (luciferase), LNCaP stable cell line pSTAT3-TA-luc, IL-6 stimulation
Type: cell-based, human
test-context: Homo sapiens
Method: 1-1) Experiment on the Inhibition of STAT3 Activity […] The luciferase assay and the cell viability assay were performed respectively with one of the two plates. […] After shaking the plate for 30 minutes, luciferase activities of each well were measured in a PHERAstar™ microplate reader (BMG LABTECH) using a luciferase assay system (Cat No. E1501, Promega). […]
reported-endpoint: IC50 (µM)

Some compounds with known IC50 results, for comparison:
CC(C)COc1cc(OC(F)(F)F)cc(C(C)(C)c2cc(Cl)cc(NC(=O)c3cc4cc(C(C)(C)S(C)(=O)=O)ccc4s3)c2)c1
0.0021
CC(C)(c1ccc2sc(C(=O)Nc3cc(Cl)nc(Oc4ccc(OC(F)(F)F)cc4)c3)cc2c1)S(C)(=O)=O
0.0065

(a) Cc1cc(Oc2cc(NC(=O)c3cc4cc(C(C)(C)S(C)(=O)=O)ccc4s3)cc(Cl)n2)cs1
(b) Cc1cnc(Oc2cc(NC(=O)c3cc4cc(C(C)(C)S(C)(=O)=O)ccc4s3)cc(Cl)n2)s1
// task: argmin of IC50 over [ a , b ] Refer to your chosen entry by its label in the reply.
a
(a: 0.063 µM, b: 0.46 µM)

====

Tested on: STAT3
protocol-text: STAT3 reporter gene assay (luciferase), LNCaP stable cell line pSTAT3-TA-luc, IL-6 stimulation
Format: cell-based, human
test-context: Homo sapiens
reported-endpoint: IC50 (µM)

(A) CC(C)(c1ccc2sc(C(=O)Nc3cc(Cl)nc(Oc4ccc(F)c(Cl)c4)c3)cc2c1)S(C)(=O)=O
(B) CC(C)(c1ccc2sc(C(=O)Nc3cc(Oc4ccc(Cl)cc4)cc(Cl)n3)cc2c1)S(C)(=O)=O
(C) CC(C)(c1ccc2sc(C(=O)Nc3cc(Cl)cc(Oc4ccc(Cl)cc4)n3)cc2c1)S(C)(=O)=O
Order them by IC50, ascending: the compounds above. Dear reader, please state the labels in the requested order.
A, B, C

====

Test system: STAT3
protocol-text: STAT3 reporter gene assay (luciferase), LNCaP stable cell line pSTAT3-TA-luc, IL-6 stimulation
Type: cell-based, human
test-context: Homo sapiens
reported-endpoint: IC50 (µM)

CC(C)(c1ccc2sc(C(=O)Nc3cc(Cl)cc(Oc4ccc(Cl)cc4)c3)cc2c1)S(C)(=O)=O
0.019
CC(C)(c1ccc2sc(C(=O)Nc3cc(Cl)nc(Oc4ccc(Cl)nc4)c3)cc2c1)S(C)(=O)=O
0.079
CC#Cc1cc(OC(F)(F)F)cc(C(C)(C)c2cc(Cl)cc(NC(=O)c3cc4cc(C(C)(C)S(C)(=O)=O)ccc4s3)c2)c1
0.0097

(P) CC(C)(c1ccc(Cl)cc1)c1cc(Cl)cc(NC(=O)c2cc3cc(CS(C)(=O)=O)ccc3s2)c1
(Q) CC(C)(c1ccc2sc(C(=O)Nc3cc(Oc4ccc(Cl)cc4)cc(N4CCC4)c3)cc2c1)S(C)(=O)=O
Kindly compare P with Q and tell me which has the lower IC50 figure. Respond with the label that goes with your answer.
P
(P: 0.11 µM, Q: 0.31 µM)

(a) COC(=O)c1cc(Oc2cc(NC(=O)c3cc4cc(C(C)(C)S(C)(=O)=O)ccc4s3)cc(Cl)n2)no1
(b) Cn1cc(Oc2cc(NC(=O)c3cc4cc(C(C)(C)S(C)(=O)=O)ccc4s3)cc(Cl)n2)cn1
Which of the two items, a and b , has the greater recorded IC50? // respond with label for picked entry
a

====

Test system: STAT3
protocol-text: STAT3 reporter gene assay (luciferase), LNCaP stable cell line pSTAT3-TA-luc, IL-6 stimulation
Assay type: cell-based, human
test-context: Homo sapiens
reported-endpoint: IC50 (µM)

Below, each entry is followed by its recorded IC50 result.
CC#CCOc1cc(OC(F)(F)F)cc(C(C)(C)c2cc(Cl)cc(NC(=O)c3cc4cc(C(C)(C)S(C)(=O)=O)ccc4s3)c2)c1
0.018
CC(C)(c1ccc2sc(C(=O)Nc3cc(Cl)nc(Oc4cccc(Cl)c4)c3)cc2c1)S(C)(=O)=O
0.04
CC(C)(c1ccc(Cl)cc1)c1cc(Cl)cc(NC(=O)c2cc3cc(CS(C)(=N)=O)ccc3s2)c1 (centres unmarked)
0.064

(P) CC(C)(c1ccc2sc(C(=O)Nc3cc(Cl)cc(Oc4ccc(F)cc4)c3)cc2c1)S(C)(=O)=O
(Q) CC(C)(c1ccc(F)cc1)c1cc(Br)cc(NC(=O)c2cc3cc(C(C)(C)S(C)(=O)=O)ccc3s2)c1
(R) CC(C)c1ccc(C(C)(C)c2cc(Cl)cc(NC(=O)c3cc4cc(C(C)(C)S(C)(=O)=O)ccc4s3)c2)s1
(S) CC(C)(c1ccc2sc(C(=O)Nc3cc(Cl)cc(Oc4ccc(OC(F)(F)F)cc4)c3)cc2c1)S(C)(=O)=O
Your job: order these 4 records by IC50, ascending. Give your ranking as a list of the labels in the requested order.
R, S, P, Q

(I) CC(C)(c1ccc2sc(C(=O)N3CCOc4c(Cl)cc(Oc5ccc(Cl)cc5)cc43)cc2c1)S(C)(=O)=O
(II) CC(C)Oc1cc(OC(F)(F)F)cc(C(C)(C)c2cc(Br)cc(NC(=O)c3cc4cc(C(C)(C)S(C)(=O)=O)ccc4s3)c2)c1
Which has the higher IC50, I or II ? Pick one and reply with its label.
I
(I: 0.19 µM, II: 0.00065 µM)

====

System: STAT3
protocol-text: STAT3 reporter gene assay (luciferase), LNCaP stable cell line pSTAT3-TA-luc, IL-6 stimulation
Format: cell-based, human
test-context: Homo sapiens
reported-endpoint: IC50 (µM)

(1) CC(C)(c1cc(Br)cc(NC(=O)c2cc3cc(C(C)(C)S(C)(=O)=O)ccc3s2)c1)c1cc(OC(F)(F)F)cc(OC(F)(F)C(F)F)c1
(2) CC(C)(c1ccc2sc(C(=O)Nc3cc(Cl)cc(C4(c5ccc(Cl)cc5)CC4)c3)cc2c1)S(C)(=O)=O
Compare IC50: is it lower for 1 or for 2 ? Please indicate the selected item by its label.
1
(1: 0.0091 µM, 2: 0.025 µM)

(1) COc1cc(NC(=O)c2cc3cc(C(C)(C)S(C)(=O)=O)ccc3s2)cc(Oc2ccc(Cl)cc2)c1
(2) CC(C)(c1cc2cc(C(=O)Nc3cc(Cl)cc(Oc4ccc(Cl)cc4)c3)sc2cc1F)S(C)(=O)=O
(3) O=C(Nc1cc(Cl)nc(Oc2ccc(Cl)cc2)c1)c1cc2cc(C3CCCCS3(=O)=O)ccc2s1 (stereo not shown)
(4) CCOc1cc(OC(F)(F)F)cc(C(C)(C)c2cc(Cl)cc(NC(=O)c3cc4cc(C(C)(C)S(C)(=O)=O)ccc4s3)c2)c1
Ascending sort, IC50. List the labels according to the requested ordering.
4, 2, 1, 3
(4: 0.0076 µM, 2: 0.019 µM, 1: 0.054 µM, 3: 0.12 µM)

(a) COc1cc(NC(=O)c2cc3cc(C(C)(C)S(C)(=O)=O)ccc3s2)cc(C(C)(C)c2cc(OC)cc(OC(F)(F)F)c2)c1
(b) Cc1nn(C)c(C)c1Oc1cc(NC(=O)c2cc3cc(C(C)(C)S(C)(=O)=O)ccc3s2)cc(Cl)n1
(c) CC(C)(c1ccc(Cl)cc1)c1cc(Cl)cc(NC(=O)c2cc3cc(C4(S(C)(=O)=O)CC4)ccc3s2)c1
(d) CC(C)(c1ccc2cc(C(=O)Nc3cc(Cl)cc(Oc4ccc(Cl)cc4)c3)[nH]c2c1)S(C)(=O)=O
(e) CC(C)(c1ccc2sc(C(=O)Nc3cc(Cl)nc(OC4CCN5CCCC5C4)c3)cc2c1)S(C)(=O)=O (stereo not shown)
Reorder the items by IC50, least to greatest. Rank them, then answer with their labels in that order.
a, c, d, b, e
(a: 0.019 µM, c: 0.054 µM, d: 0.21 µM, b: 1.3 µM, e: 2.1 µM)

(a) CC(C)(C)OC(=O)NCCOc1cc(NC(=O)c2cc3cc(C(C)(C)S(C)(=O)=O)ccc3s2)cc(Oc2ccc(Cl)cc2)c1
(b) Cn1cccc1C(C)(C)c1cc(Cl)cc(NC(=O)c2cc3cc(C(C)(C)S(C)(=O)=O)ccc3s2)c1
(c) O=C(Nc1cc(Cl)nc(Oc2ccc(Cl)cc2)c1)c1cc2cc(C3CCCS3(=O)=O)ccc2s1 (stereo not shown)
Exam item: list the entries in increasing order of IC50. Response format: the labels, sorted as the prompt asks.
b, a, c

(a) CC(C)(c1ccc2sc(C(=O)Nc3cc(Cl)nc(N4CCC5CCCCC5C4)c3)cc2c1)S(C)(=O)=O (stereo not shown)
(b) Cc1sccc1Oc1cc(NC(=O)c2cc3cc(C(C)(C)S(C)(=O)=O)ccc3s2)cc(Cl)n1
Compare a and b and name the one whose reported IC50 is smaller. Select an item and report its label.
b

(1) CC(C)(c1cc2cc(C(=O)Nc3cc(Cl)cc(Oc4ccc(Cl)cc4)c3)sc2cc1Cl)S(C)(=O)=O
(2) CC(C)(c1ccc2sc(C(=O)Nc3cc(Cl)cc(Oc4ccc(F)c(F)c4)c3)cc2c1)S(C)(=O)=O
(3) CS(=O)(=O)C1(c2ccc3sc(C(=O)Nc4cc(Cl)cc(Oc5ccc(Cl)cc5)c4)cc3c2)CCOCC1
(4) COc1ccc(C(C)(C)c2cc(Cl)cc(NC(=O)c3cc4cc(C(C)(C)S(C)(=O)=O)ccc4s3)c2)cc1
Let's sort these by IC50, smallest first. Go ahead? The response must list the labels following the requested ordering.
2, 4, 1, 3
(2: 0.025 µM, 4: 0.045 µM, 1: 0.078 µM, 3: 3.3 µM)

(a) CC(C)(c1ccc2sc(C(=O)Nc3cc(Cl)cc(Oc4ccc(F)c(Cl)c4)c3)cc2c1)S(C)(=O)=O
(b) COc1sccc1C(C)(C)c1cc(Cl)cc(NC(=O)c2cc3cc(C(C)(C)S(C)(=O)=O)ccc3s2)c1
Of the two listed items, a and b , which carries the larger IC50 figure? Your answer should be the label of the entry you select.
a
(a: 0.022 µM, b: 0.0013 µM)

(A) CN(c1ccc(Cl)cc1)c1cc(Cl)cc(NC(=O)c2cc3cc(C(C)(C)S(C)(=O)=O)ccc3s2)c1
(B) CC(C)(c1ccc2sc(C(=O)Nc3cc(Cl)nc(OC4CC=C(Cl)CC4)c3)cc2c1)S(C)(=O)=O (stereo not shown)
(C) CC(C)(c1ccc(F)cc1)c1cc(Cl)cc(NC(=O)c2cc3cc(C(C)(C)S(C)(=O)=O)ccc3s2)c1
(D) Cc1csc(Oc2cc(NC(=O)c3cc4cc(C(C)(C)S(C)(=O)=O)ccc4s3)cc(Cl)n2)n1
Arrange by IC50, high to low. # output: labels, in the requested order
D, A, C, B
(D: 2.8 µM, A: 0.11 µM, C: 0.031 µM, B: 0.0093 µM)
